Give measured recombinant UMI read abundance (log10) for each item. Keep answers brief.
- assay.method.text: recombinant UMI read abundance after kanamycin selection (control-corrected) (log10(CPM+1)); higher = more efficient recombination; extreme values may be limits of the assay; sequences stand for … in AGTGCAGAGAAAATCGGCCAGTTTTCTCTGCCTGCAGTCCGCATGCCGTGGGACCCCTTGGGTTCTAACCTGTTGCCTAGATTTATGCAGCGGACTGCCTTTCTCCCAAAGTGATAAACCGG…AGGTTGGTTTCACT; site = the 11-nt donor;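 further: IS621 bridge recombinase in Escherichia coli cells against a fixed T5 target plasmid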
# print the numeric value only

## Task Complete the entry with recombinant UMI read abundance (log10) for TAATGTCCATGGACCGGTTTTCCCGGTAATCCGTATTTGTA (site TAACGTCCTTA)
## Result 0.254

## Task Complete the entry with recombinant UMI read abundance (log10) for GTATGCCCATGGACCGGTTTTCCCGGTAATCCGTATTTGTA (site GTATGCACTTA)
## Result 0.0189

## Task Complete the entry with recombinant UMI read abundance (log10) for AGGAAGACATGGACCGGTTTTCCCGGTAATCCGTATTTGCT (site AGGAAGACTAG)
## Result 2.25

## Task Complete the entry with recombinant UMI read abundance (log10) for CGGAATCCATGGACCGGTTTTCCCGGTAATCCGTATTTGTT (site CCGATTCCTAA)
## Result 0.00402

## Task Complete the entry with recombinant UMI read abundance (log10) for CGGTGGACATGGACCGGTTTTCCCGGTAATCCGTATTTGTC (site CGGTGGACTGA)
## Result 2.27

## Task Complete the entry with recombinant UMI read abundance (log10) for GACAAAACATGGACCGGTTTTCCCGGTAATCCGTATTTGGT (site GACAAAGCTAC)
## Result 0.517

## Task Complete the entry with recombinant UMI read abundance (log10) for CTTGTATCATGGACCGGTTTTCCCGGTAATCCGTATTTGAT (site CTAGTATCTGT)
## Result 0

## Task Complete the entry with recombinant UMI read abundance (log10) for CTCTGTTCATGGACCGGTTTTCCCGGTAATCCGTATTTGCC (site CTCTGTTCTGG)
## Result 1.45

## Task Complete the entry with recombinant UMI read abundance (log10) for CGTTGTCCATGGACCGGTTTTCCCGGTAATCCGTATTTGTA (site CGTTGTCCTTA)
## Result 0.0342
